Kindly supply the reported folding stability dG values for the records listed here.
B1: EHEE_rd2_0196 (parent)
chain: TETRTFDSEEEAKKAQKEAEKQGRTVTITRRDDRWEVRFD

Variants of: B1
Assay: folding stability dG (cDNA display proteolysis); higher = more stable
Conditions: PBS, room temperature
Numbers only, in kcal/mol.

INSERT INTO measurements (variant_id, observed_result) VALUES
  ('T25N', 2.69),
  ('V26A', 3.4),
  ('K17R', 3.13),
  ('A12G', 0.827);

Below are some variants; for each one, tell me its folding stability dG.
1. T1G
2. G23V
3. E36I
4. K13S
5. R34Q
6. R4P
7. Q16H

*A*
1: 2.96; 2: 0.857; 3: 2.99; 4: 2.45; 5: 2.96; 6: 1.25; 7: 2.07
